The reported numbers originate from paper PMC9317961.

- experimental target: T1, PDZD7 PDZ3 (a.a. 842-946) (mouse, UniProt E9Q9W7 842-946)
- T1 construct: As used in ITC; also called WT PDZD7 PDZ3; source: E. coli BL21 (DE3), purified (nickel-NTA, SEC); not shown: Trx (from the vector pET.32M.3C)
- T1 sequence (looked up): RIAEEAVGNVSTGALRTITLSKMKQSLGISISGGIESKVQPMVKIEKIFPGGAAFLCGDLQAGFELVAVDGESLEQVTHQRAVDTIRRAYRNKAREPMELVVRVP
- assay comment: ITC; MicroCal iTC200, 25°C; ~500 μM protein in the syringe titrated into ~50 μM partner in the cell; one-site binding model
- test parameters: both partners purified

- binder: "TEKMEDVEITLV (peptide, UniProt Q3USJ8 729-740, looked up, As used in ITC; also called WT FCHSD2 tail; source: E. coli BL21 (DE3), purified (nickel-NTA, SEC)) [FCHSD2 tail (a.a. 729-740)]"
  Kd: "~1.51 µM"
